- Test system: HT29
- CONDITIONS USED: 72 h, relative to DMSO; 10 µM
Counter-ions that a name gives are not always drawn.
REPORTED METRIC: Relative cell viability (%)

MOLECULE	RESULT
CN(C(=O)c1ccc(F)cc1C(F)(F)F)C1CCN(c2nnc(-c3ccnn3C)c3ccccc23)CC1 [Taladegib (LY2940680)]	105.5%
Cc1cccc(CN2CCN(C(c3ccccc3)c3ccc(Cl)cc3)CC2)c1 (stereo not drawn) [Meclizine 2HCl]	130.4%
CN(C)CCCN1c2ccccc2Sc2ccc(Cl)cc21 [Chlorpromazine HCl]	93.71%
OCCN(CCO)c1nc(N2CCCCC2)c2nc(N(CCO)CCO)nc(N3CCCCC3)c2n1 [Dipyridamole]	52.54%
CCCCCCCCCCCC1=C(O)C(=O)C=C(O)C1=O [Embelin]	140.6%
O=c1[nH]c(=O)n([C@H]2C[C@H](O)[C@@H](CO)O2)cc1C(F)(F)F [Trifluridine]	53.81%
C[C@H]1CNCCCN1S(=O)(=O)c1cccc2cncc(F)c12 [Ripasudil (K-115)]	118.8%
CCCC1O[C@@H]2C[C@H]3[C@@H]4CCC5=CC(=O)C=C[C@]5(C)[C@H]4[C@@H](O)C[C@]3(C)[C@]2(C(=O)CO)O1 (stereo partly drawn) [Budesonide]	83.64%
C[C@]12C=CC(=O)C=C1CC[C@H]1[C@@H]3C[C@@H](O)[C@](O)(C(=O)CO)[C@@]3(C)C[C@H](O)[C@@]12F [Triamcinolone]	171.8%
CC(NC(C)(C)C)C(=O)c1cccc(Cl)c1 (stereo not drawn) [Amfebutamone HCl]	104.9%
Nc1nc2c(ncn2CCC(CO)CO)c(=O)[nH]1 [Penciclovir]	100.303%
COc1cc2c(cc1OC)[C@H]1CC(=O)[C@H](CC(C)C)CN1CC2 (racemic) [Tetrabenazine (Xenazine)]	97.03%
C=C[C@]1(C)C[C@@H](OC(=O)CSC(C)(C)CNC(=O)[C@H](N)C(C)C)[C@]2(C)[C@H](C)CC[C@]3(CCC(=O)[C@H]32)[C@@H](C)[C@@H]1O [Valnemulin HCl]	68.48%
CC(C)(Sc1cc(C(C)(C)C)c(O)c(C(C)(C)C)c1)Sc1cc(C(C)(C)C)c(O)c(C(C)(C)C)c1 [Probucol]	130.3%
COC(=O)N[C@H](C(=O)N1CC2(CC2)C[C@H]1c1ncc(-c2ccc3c(c2)C(F)(F)c2cc(-c4ccc5nc([C@@H]6[C@H]7CC[C@H](C7)N6C(=O)[C@@H](NC(=O)OC)C(C)C)[nH]c5c4)ccc2-3)[nH]1)C(C)C [Ledipasvir (GS5885)]	80.34%
